All values here come from the RNAGym collection of RNA variant scans (doi:10.7554/elife.80360).

B1: Hairpin Ribozyme (parent)
chain: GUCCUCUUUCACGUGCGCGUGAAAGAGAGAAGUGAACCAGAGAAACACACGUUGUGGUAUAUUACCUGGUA

Variants of: B1
protocolDescription: self-cleavage, relative activity (ratio to wild type); higher = more cleavage; co-transcriptional
Each entry gets rule not met if its self-cleavage stays under 0.3, and rule met if its self-cleavage is 0.3 or above.

A45U G54A    rule not met
C3G U33G    rule not met
U20G G34C    rule met
C66G G68U    rule not met
A26C C38U    rule met

Request: Exam item: decide whether the reported self-cleavage for U55C G69U is at least 0.3.
Response: rule not met

Request: Next: A35C A59G
Response: rule not met

Request: Next: A24U C46U
Response: rule not met

Request: Next: C18G A23U
Response: rule met
